system: K-562 leukemia; test: NCI tumour cell line growth inhibition, 48 h
Overview of reported TGI across a group of compounds:

| Compound | TGI |
| --- | --- |
| O=c1ccccc(-c2ccc(Br)cc2)c1O | > 100 µM |
| Cc1c(C(=O)O)n2c(C)nnc2c2ccccc12 | > 100 µM |
| COc1ccc(C(=S)N(C)NC(=O)CC(=O)NN(C)C(=S)c2ccc(OC)cc2)cc1 | > 100 µM |
| O=c1oc2ccc(Cl)cc2c2ccccc12 | > 100 µM |
| Cc1ccc(C2=Nc3c(N)nc(N)nc3NC(c3cccc(Nc4ccnc5cc(C(F)(F)F)ccc45)c3)C2)cc1 (stereo not given) | 6.98 µM |
| CC(C)(C)OC(=O)NC(CSCc1ccc(C(=O)c2ccccc2)cc1)C(=O)O (stereo not given) | > 100 µM |
| Cc1cccc(C)c1NC(=O)C(=O)C(C#N)c1ccccc1 (stereo not given) | > 100 µM |
| NS(=O)(=O)c1cc2c(cc1Cl)NC(/C(=N/NC(=O)c1ccncc1)C1C(=O)NC(=O)NC1=O)=NS2(=O)=O | > 100 µM |

Query :: Dear colleague, I am looking for the recorded TGI of the following compound: "COc1cc(-c2nc3ccc(N4CCN(C)CC4)cc3[nH]2)c(OC)c2[nH]c(CO)nc12"
Result :: > 100 µM

---

Overview of reported TGI across a group of molecules:
tested on: SNB-75 CNS; experiment: NCI tumour cell line growth inhibition, 48 h

| Molecule | TGI |
| --- | --- |
| COC1O[C@@H]2COC(C)(C)O[C@@H]2C(=O)N1Nc1ccc([N+](=O)[O-])cc1 (stereo partly specified) | > 100 µM |
| CC(=O)OC12c3ccccc3C1CCCC21OCCCO1 (stereo unspecified) | > 100 µM |
| S=C(S)N1CCCCC1 | > 406 µM |
| COC(=O)C(Cc1ccc(OC)cc1O)NC(=O)OC(C)(C)C (stereo unspecified) | > 100 µM |

Query :: Dear colleague, I am looking for the recorded TGI of the following molecule: Nc1nc(N)c2ncn(CCCC(c3ccccc3)P(=O)(O)O)c2n1 (stereo unspecified)
Result :: > 100 µM

Query :: Dear colleague, I am looking for the recorded TGI of the following molecule: "Nn1c(SCC(=O)O)nc2ccccc2c1=O"
Result :: > 100 µM

---

Overview of reported TGI across a group of compounds:
test system: MDA-MB-231 breast; assay: NCI tumour cell line growth inhibition, 48 h

Below, 6 compounds whose answers are already recorded.
| Compound | Measurement target | TGI |
| --- | --- | --- |
| Cn1cc(-c2csc(-c3c[nH]c4ccccc34)n2)c2cnccc21 | MDA-MB-231 breast | 3.22 µM |
| CCCCOC(=O)CC(CC(=O)OCCCC)(OC(C)=O)C(=O)OCCCC | MDA-MB-231 breast | > 200 µM |
| O=C(CN(/C=C/C(=O)C(F)(F)F)c1ccc(Cl)cc1)c1ccc(F)cc1 | MDA-MB-231 breast | 27.3 µM |
| Cc1cc(=O)[nH]c(S(=O)(=O)NC(=S)Nc2ccc(Cl)cc2)n1 | MDA-MB-231 breast | > 100 µM |
| C=C1CC2(CCOc3ccc(Cl)cc32)OC1=O (configuration not stated) | MDA-MB-231 breast | 20.1 µM |
| CCOC(=O)/C(C#N)=C\C=C(\Sc1nc2ccccc2s1)c1ccc(Cl)cc1 | MDA-MB-231 breast | > 100 µM |

Query :: Dear colleague, I am looking for the recorded TGI of the following compound: CCC(N)(C(=O)O)C(C)C (configuration not stated)
Result :: > 100 µM

Query :: Dear colleague, I am looking for the recorded TGI of the following compound: CC1(C)Oc2ccccc2OC1O (configuration not stated)
Result :: > 100 µM

Query :: Dear colleague, I am looking for the recorded TGI of the following compound: "COc1ccc(-c2cc(=O)c3c(O)cc(O)cc3o2)cc1OC"
Result :: > 100 µM

Query :: Dear colleague, I am looking for the recorded TGI of the following compound: "CC1(C)CC[C@]2(C(=O)Nc3ccccn3)CC[C@]3(C)C(=CC[C@@H]4[C@@]5(C)C/C(=C/c6ccncc6)C(=O)C(C)(C)[C@@H]5CC[C@]43C)[C@@H]2C1"
Result :: 19.5 µM

Query :: Dear colleague, I am looking for the recorded TGI of the following compound: C=C(C(=O)OC)N1C(=O)CC(C)C1=O (configuration not stated)
Result :: 34.1 µM

Recorded values, source PubChem BioAssay (NCI).
